assay: Pharmacokinetics of artesunate (AS) in plasma after multiple intravenous doses, compartmental analysis (Phase 1b); type: in vivo, human; conditions: human, plasma, iv, 8 mg/kg, Day 3; AS 8 mg/kg iv daily for 3 days, 2 min infusion; mean (CV%), n = 6; CA
measured.quantity: AUC(0-inf) (ng·h/mL)

compound="C[C@H]1[C@H](OC(=O)CCC(=O)O)O[C@@H]2O[C@@]3(C)CC[C@H]4[C@H](C)CC[C@@H]1[C@@]24OO3 [AS]" measured_value=5920

----------
Assay: Pharmacokinetics of artesunate (AS) in plasma after multiple intravenous doses, compartmental analysis (Phase 1b)
Assay type: in vivo, human
Conditions: human, plasma, iv, 2 mg/kg, Day 2; AS 2 mg/kg iv daily for 3 days, 2 min infusion; mean (CV%), n = 6; CA
Method: The study was a double blind, ascending multiple doses, alternating group, safety, tolerance, and PK study. […] When the injection was completed, the study nurse recorded tolerance of injection to include both inspection of site and subjects’ responses. […] The analytes were extracted from human plasma with ethyl acetate. […] The reconstituted extracts were analysed on a Micromass Quattro II Mass Spectrometer in the positive ion electrospray ionization (+ESI) mode. […]
measured.quantity: AUC(0-inf) (ng·h/mL)

molecule="C[C@H]1[C@H](OC(=O)CCC(=O)O)O[C@@H]2O[C@@]3(C)CC[C@H]4[C@H](C)CC[C@@H]1[C@@]24OO3 [AS]" measurement_unit=ng·h/mL measured_value=1410

----------
test: Pharmacokinetics of artesunate (AS) in plasma after multiple intravenous doses, compartmental analysis (Phase 1b); format: in vivo, human; details: human, plasma, iv, 8 mg/kg, Day 2; AS 8 mg/kg iv daily for 3 days, 2 min infusion; mean (CV%), n = 6; CA; read-out: CL_obs
measured.quantity: clearance (mL/min/kg)

molecule="C[C@H]1[C@H](OC(=O)CCC(=O)O)O[C@@H]2O[C@@]3(C)CC[C@H]4[C@H](C)CC[C@@H]1[C@@]24OO3 [AS]" measured_value=26.7

----------
assay: Pharmacokinetics of artesunate (AS) in plasma after multiple intravenous doses, compartmental analysis (Phase 1b); type: in vivo, human; details: human, plasma, iv, 4 mg/kg, Day 3; AS 4 mg/kg iv daily for 3 days, 2 min infusion; mean (CV%), n = 6; CA
measured.quantity: Cmax (µg/mL)

compound="C[C@H]1[C@H](OC(=O)CCC(=O)O)O[C@@H]2O[C@@]3(C)CC[C@H]4[C@H](C)CC[C@@H]1[C@@]24OO3 [AS]" measured_quantity=Cmax measured_value=51.2

----------
experiment: Pharmacokinetics of artesunate (AS) in plasma after multiple intravenous doses, compartmental analysis (Phase 1b); format: in vivo, human; details: human, plasma, iv, 2 mg/kg, Day 3; AS 2 mg/kg iv daily for 3 days, 2 min infusion; mean (CV%), n = 6; CA
measured.quantity: AUC(0-inf) (ng·h/mL)

smiles_structure=C[C@H]1[C@H](OC(=O)CCC(=O)O)O[C@@H]2O[C@@]3(C)CC[C@H]4[C@H](C)CC[C@@H]1[C@@]24OO3 measured_quantity=AUC(0-inf) measurement_unit=ng·h/mL measured_value=1270

----------
assay: Pharmacokinetics of artesunate (AS) in plasma after multiple intravenous doses, compartmental analysis (Phase 1b); type: in vivo, human; conditions: human, plasma, iv, 8 mg/kg, Day 1; AS 8 mg/kg iv daily for 3 days, 2 min infusion; mean (CV%), n = 6; CA
measured.quantity: Cmax (µg/mL)

smiles_structure=C[C@H]1[C@H](OC(=O)CCC(=O)O)O[C@@H]2O[C@@]3(C)CC[C@H]4[C@H](C)CC[C@@H]1[C@@]24OO3 measured_quantity=Cmax measured_value=63.7
